In this section we review reported pKi values for a set of compounds.
Target: Muscarinic acetylcholine receptor M1 (Homo sapiens, UniProt P11229)
Sequence (P11229 whole entry): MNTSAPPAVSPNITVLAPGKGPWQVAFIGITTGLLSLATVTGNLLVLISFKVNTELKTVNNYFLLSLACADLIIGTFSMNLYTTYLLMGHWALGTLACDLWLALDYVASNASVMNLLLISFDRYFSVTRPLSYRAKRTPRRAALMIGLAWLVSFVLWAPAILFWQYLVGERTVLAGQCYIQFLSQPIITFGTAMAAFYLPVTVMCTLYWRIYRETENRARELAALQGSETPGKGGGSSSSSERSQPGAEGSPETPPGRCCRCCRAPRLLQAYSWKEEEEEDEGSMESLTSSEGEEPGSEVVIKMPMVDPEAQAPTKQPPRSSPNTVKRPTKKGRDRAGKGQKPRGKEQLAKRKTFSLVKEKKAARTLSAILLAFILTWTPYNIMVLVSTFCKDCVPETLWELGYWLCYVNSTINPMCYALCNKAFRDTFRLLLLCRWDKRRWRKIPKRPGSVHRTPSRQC
Just the number, please; pKi means minus log10 of the concentration in mol/L.

Past entries and their recorded results:
{"columns": ["compound", "assayedTarget", "pKi"],
 "data": [
  ["CN1CCC[C@H]1c1ccc([C@@](O)(c2ccccc2)C2CCCCC2)o1", "Muscarinic acetylcholine receptor M1 (Homo sapiens, UniProt P11229)", 5.91],
  ["CN1CCCC1c1ccc(C(c2ccccc2)c2ccccc2)o1 (configuration not stated)", "Muscarinic acetylcholine receptor M1 (Homo sapiens, UniProt P11229)", 7.37],
  ["C[N+]1(C)CCCC1c1ccc(C(c2ccccc2)C2CCCCC2)o1 (mixture of isomers)", "Muscarinic acetylcholine receptor M1 (Homo sapiens, UniProt P11229)", 8.18],
  ["CN1CCC[C@@H]1c1ccc([C@](O)(c2ccccc2)C2CCCCC2)o1", "Muscarinic acetylcholine receptor M1 (Homo sapiens, UniProt P11229)", 8.91],
  ["C[N+]1(C)CCC[C@H]1c1ccc([C@](O)(c2ccccc2)C2CCCCC2)o1", "Muscarinic acetylcholine receptor M1 (Homo sapiens, UniProt P11229)", 8.04]
]}

Query: Return reported pKi; argument: C[N+]1(C)CCCC1c1ccc(C(c2ccccc2)c2ccccc2)o1 (racemic)
Response: 7.94

Query: For the compound CN1CCCC1c1ccc(C(O)(c2ccccc2)C2CCCCC2)o1 (mixture of isomers) , what pKi is on record?
Response: 8.91

====

Biological target: Muscarinic receptor 4 (Cavia porcellus)
Sequence (whole entry): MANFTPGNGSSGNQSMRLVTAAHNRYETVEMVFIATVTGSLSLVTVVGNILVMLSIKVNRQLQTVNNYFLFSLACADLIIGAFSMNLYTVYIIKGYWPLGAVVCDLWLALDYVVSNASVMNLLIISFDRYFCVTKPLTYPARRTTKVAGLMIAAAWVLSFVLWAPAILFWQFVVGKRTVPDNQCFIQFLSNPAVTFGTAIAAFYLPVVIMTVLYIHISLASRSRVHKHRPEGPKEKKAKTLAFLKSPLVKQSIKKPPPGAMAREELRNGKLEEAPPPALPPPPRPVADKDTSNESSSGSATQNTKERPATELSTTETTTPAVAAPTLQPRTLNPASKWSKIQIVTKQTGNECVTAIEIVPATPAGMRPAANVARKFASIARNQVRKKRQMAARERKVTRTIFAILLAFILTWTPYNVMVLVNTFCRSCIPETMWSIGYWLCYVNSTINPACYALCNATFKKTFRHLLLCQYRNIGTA
Test: Antagonist activity at muscarinic M4 receptor in guinea pig lung strips assessed as effect on isotonic contraction after 60 mins
Type: functional
endpoint: pKb
Respond with the number and no other words.

Example cases with answers are listed next.
{"columns": ["compound", "endpoint", "measurement"],
 "data": [
  ["C[N+]1(C)CCC[C@@H]1c1ccc([C@](O)(c2ccccc2)C2CCCCC2)o1.[I-]", "pKb", 7.75],
  ["C[N+]1(C)CCCC1c1ccc(C(c2ccccc2)C2CCCCC2)o1 (mixture of isomers)", "pKb", 5.69],
  ["C[N+]1(C)CCC[C@@H]1c1ccc([C@@](O)(c2ccccc2)C2CCCCC2)o1", "pKb", 6.33],
  ["CN1CCC[C@H]1c1ccc([C@](O)(c2ccccc2)C2CCCCC2)o1", "pKb", 5.84],
  ["C[N+]1(C)CCCC1c1ccc(C(O)(c2ccccc2)c2ccccc2)o1 (racemic)", "pKb", 6.2],
  ["C[N+]1(C)CCC[C@H]1c1ccc([C@](O)(c2ccccc2)C2CCCCC2)o1", "pKb", 6.16],
  ["C[N+]1(C)CCCC1c1ccc(C(O)(c2ccccc2)C2CCCCC2)o1 (mixture of isomers)", "pKb", 5.9],
  ["CN1CCC[C@@H]1c1ccc([C@](O)(c2ccccc2)C2CCCCC2)o1", "pKb", 5.92]
]}

// next item, pKb requested
Query: Which pKb is listed for CN1CCCC1c1ccc(C(c2ccccc2)c2ccccc2)o1 (stereo unspecified) ?
Response: 5.19
